assay: Co-solvent addition: AOL solubility; format: physicochemical; settings: aqueous SBE-β-CD solution, aqueous with cosolvent or surfactant or cyclodextrin, thermodynamic from solid, SBE-β-CD 20% (w/w), Tween 80 2% (w/w)
assay-readout: solubility at 4 h

> print(dat)
                         compound      assay.readout  observed.measurement
1  COc1ccc(-c2cc(=S)ss2)cc1 [AOL]  solubility at 4 h             374 µg/mL

###

test: Co-solvent addition: AOL solubility; type: physicochemical; details: aqueous HP-β-CD solution, aqueous with cosolvent or surfactant or cyclodextrin, thermodynamic from solid, HP-β-CD 20% (w/w), PVP 12PF 2.0% (w/w)
assay-readout: solubility at 4 h (µg/mL)

> print(dat)
                         compound      assay.readout  observed.measurement
1  COc1ccc(-c2cc(=S)ss2)cc1 [AOL]  solubility at 4 h                   291
